# study_system: ΔF508-CFTR (Homo sapiens, UniProt P13569, DEL508-508)
# Construct: host or cells: CFBE41o-, doxycycline-inducible
# Sequence (P13569 with tags, fused parts or gaps DEL508-508): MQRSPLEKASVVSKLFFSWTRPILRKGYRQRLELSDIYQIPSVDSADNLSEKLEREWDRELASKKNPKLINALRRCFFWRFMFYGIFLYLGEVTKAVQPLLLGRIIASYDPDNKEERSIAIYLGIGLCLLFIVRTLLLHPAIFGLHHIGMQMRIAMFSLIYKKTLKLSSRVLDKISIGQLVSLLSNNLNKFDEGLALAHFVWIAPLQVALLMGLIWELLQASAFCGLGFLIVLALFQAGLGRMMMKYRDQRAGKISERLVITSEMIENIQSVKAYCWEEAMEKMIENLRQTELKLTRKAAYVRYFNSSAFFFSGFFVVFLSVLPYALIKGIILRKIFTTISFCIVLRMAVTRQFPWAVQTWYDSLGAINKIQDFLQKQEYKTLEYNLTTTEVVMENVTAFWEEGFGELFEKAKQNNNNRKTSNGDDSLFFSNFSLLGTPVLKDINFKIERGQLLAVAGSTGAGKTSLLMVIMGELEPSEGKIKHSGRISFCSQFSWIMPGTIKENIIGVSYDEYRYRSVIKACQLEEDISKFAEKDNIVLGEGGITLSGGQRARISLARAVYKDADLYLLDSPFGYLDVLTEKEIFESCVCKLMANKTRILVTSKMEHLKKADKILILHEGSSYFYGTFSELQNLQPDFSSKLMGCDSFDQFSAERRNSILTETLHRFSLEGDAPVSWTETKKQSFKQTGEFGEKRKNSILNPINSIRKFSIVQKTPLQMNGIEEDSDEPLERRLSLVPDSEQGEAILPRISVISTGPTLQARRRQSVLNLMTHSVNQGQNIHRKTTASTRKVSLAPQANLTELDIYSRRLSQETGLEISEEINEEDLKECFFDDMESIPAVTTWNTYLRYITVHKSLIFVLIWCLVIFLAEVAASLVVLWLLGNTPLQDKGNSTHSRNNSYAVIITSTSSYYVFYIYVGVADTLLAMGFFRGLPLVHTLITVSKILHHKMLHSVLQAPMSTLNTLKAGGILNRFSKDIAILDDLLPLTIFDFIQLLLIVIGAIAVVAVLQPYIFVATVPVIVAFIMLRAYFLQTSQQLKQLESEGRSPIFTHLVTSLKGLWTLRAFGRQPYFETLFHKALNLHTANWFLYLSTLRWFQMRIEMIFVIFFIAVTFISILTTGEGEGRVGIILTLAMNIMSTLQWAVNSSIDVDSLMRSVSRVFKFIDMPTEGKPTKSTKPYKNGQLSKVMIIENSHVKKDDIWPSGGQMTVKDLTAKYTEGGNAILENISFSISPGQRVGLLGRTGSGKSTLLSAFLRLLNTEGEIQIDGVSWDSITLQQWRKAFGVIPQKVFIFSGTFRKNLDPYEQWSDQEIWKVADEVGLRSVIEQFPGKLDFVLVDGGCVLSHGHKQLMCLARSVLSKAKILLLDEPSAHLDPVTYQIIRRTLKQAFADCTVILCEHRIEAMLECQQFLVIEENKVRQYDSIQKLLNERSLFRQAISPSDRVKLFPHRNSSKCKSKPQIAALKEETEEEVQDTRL
# assay_protocol: CFTR cell surface levels using HRP-tagged ΔF508-CFTR expressing CFBE cells, in the presence of a co-corrector
# Assay type: cell-based
# measurement_setup: HRP-tagged ΔF508-CFTR expressing CFBE cells, in the presence of 3 μM co-corrector
# Description: Measuring CFTR Cell Surface Levels Using HRP-Tagged AF508-CFTR Expressing CFBE Cells The HRP-tagged AF508-CFTR cell assay measures the expression of CFTR-ΔF508 at the plasma membrane. […] When HRP-tagged AF508-CFTR is present at the plasma membrane, the HRP enzyme activity can be measured. The amount of CFTR-ΔF508 that can be rescued to the plasma membrane is correlated with the amount of functional enzyme that can be measured. […]
Kindly state % Activation for each of the entries shown.
Please report the result as a number followed by the unit.

Respond only with % Activation recorded for Cc1nn(-c2ccccc2)c2nc(C(=O)O)cc(-c3ccc(N4CCC(F)(F)CC4)cc3)c12
329.7%

Indicate the recorded % Activation value for this compound: Cc1nn(-c2ccccc2)c2nc(C(=O)O)cc(N3CCN(CC#N)CC3)c12
189.95%

Give % Activation for COC1CN(C(=O)COc2cc(C(=O)O)nc3c2c(C2CCC2)nn3-c2ccccc2)C1
210.3%

Report measured % Activation; entry is Cc1nn(-c2ccc(F)cc2F)c2nc(C(=O)O)cc(-c3ccc(N4CCOCC4)nc3)c12
308.55%

Give reported % Activation value for CC(C)(C)OC(=O)N1CC(c2nn(-c3ccccc3)c3nc(C(=O)O)cc(-c4ccc(N5CCOCC5)cc4)c23)C1
390.5%

Complete the entry with % Activation for CC(C)c1nn(-c2ccc(F)cc2)c2nc(C(=O)O)cc(N3CCC(N4CCN(C)CC4)CC3)c12
377.6%

====

# study_system: ΔF508-CFTR (Homo sapiens, UniProt P13569, DEL508-508)
# Construct: host or cells: CFBE41o-, doxycycline-inducible
# assay_protocol: CFTR cell surface levels using HRP-tagged ΔF508-CFTR expressing CFBE cells, intrinsic corrector capacity
# Format: cell-based
# measurement_setup: HRP-tagged ΔF508-CFTR CFBE41o- cells, compounds alone (intrinsic corrector capacity), 20 hours at 33° C.; positive control 3 μM corrector
Hi there, I'd appreciate the recorded % Activation for every entry that follows.
Number only, in %; omit the unit.

Entry Cc1cccc(-n2nc(C(C)C)c3c(N4CCC(CO)CC4)cc(C(=O)O)nc32)c1 [compound 213] needs its % Activation filled in; supply it.
247.33

For the compound Cc1nn(-c2ccccc2)c2nc(C(=O)O)cc(O[C@H]3CCN(C)C3)c12 [compound 337] , report % Activation.
15.48

Give me measured % Activation, please, for this compound: CC(C)c1nn(C2CCCC2)c2nc(C(=O)O)cc(-c3ccc(N(C)C)nc3)c12 [compound 83]
142.25

Report % Activation, nothing else, for this compound: Cc1nn(-c2ccccc2)c2nc(C(=O)O)cc(-c3ccc(N4CCC(F)(F)CC4)cc3)c12 [compound 108]
145.5

Give the reported % Activation for this compound. Cc1nn(-c2ccccc2)c2nc(C(=O)O)cc(C(=O)N3CCCCC3)c12 [compound 158]
1.521

Determine its reported % Activation: COCC1CCN(c2cc(C(=O)O)nc3c2c(C)nn3-c2ccccc2)CC1 [compound 291]
168.85

Please indicate % Activation recorded for CC(C)c1nn(C2CCCCC2)c2nc(C(=O)O)cc(N3CCC(CO)CC3)c12 [compound 266]
197.55

Dear colleague, please send me the reported % Activation for Cc1nn(-c2ccccc2)c2nc(C(=O)O)cc(-c3ccc(N4CCOCC4)c(Br)c3)c12 [compound 66] when you can.
13.06

Supply % Activation value. Item: CC(C)c1nn(C2CCCC2)c2nc(C(=O)O)cc(-c3ccc(N4CCOCC4)cc3)c12 [compound 69]
150.25

Specify reported % Activation for the compound shown: CC(=O)NC1CCN(c2ccc(-c3cc(C(=O)O)nc4c3c(C)nn4-c3ccccc3)cc2)C1 (stereo not shown) [compound 156]
175.5

Please report % Activation for the following compound: CC(C)c1nn(C2CCCCC2)c2nc(C(=O)O)cc(-c3ccc(N4CCOCC4)nc3)c12 [compound 81]
193.6

Using the record for Cc1nn(-c2cc(Cl)cc(Cl)c2)c2nc(C(=O)O)cc(-c3ccc(N4CCOCC4)cc3)c12 [compound 44] , state its measured % Activation.
117.2

Answer with reported % Activation of Cc1cccc(-n2nc(C(C)C)c3c(N4CCC5(CC4)CN(C)C(=O)O5)cc(C(=O)O)nc32)c1 [compound 359]
142

Name the recorded % Activation of the compound listed here: NC(=O)c1nn(-c2ccccc2)c2nc(C(=O)O)cc(-c3ccc(N4CCOCC4)cc3)c12 [compound 64]
3.754

Specify reported % Activation for the compound shown: Cc1nn(-c2ccccc2)c2nc(C(=O)O)cc(N3CCCN(S(C)(=O)=O)CC3)c12 [compound 320]
19.37

Fill in % Activation for record Cc1nn(-c2ccccc2)c2nc(C(=O)O)cc(-c3ccc(C4=CCN(C)CC4)cc3)c12 [compound 27]
41.145

State its % Activation for this compound: CC(C)c1nn(-c2cccc(N3CCCC3)c2)c2nc(C(=O)O)cc(-c3ccc(N4CCOCC4)cc3)c12 [compound 157]
388.2

// Input: CN(C)c1ccc(-c2cc(C(=O)O)nc3c2c(C(C)(C)C)nn3C2CCCCC2)cc1 [compound 131] . Output its % Activation only.
153.75

# return recorded % Activation for input CC(C)c1nn(-c2cccc(N(C)C)c2)c2nc(C(=O)O)cc(N3CCC(C(F)(F)F)C3)c12 (stereo not shown) [compound 270]
236.02

Look up % Activation of Cc1cc(C)cc(-n2nc(C)c3c(-c4ccc(N5CCOCC5)cc4)cc(C(=O)O)nc32)c1 [compound 30] and report it.
119.1

Fill in reported % Activation for this entry: N#CCN1CC(c2nn(-c3ccccc3)c3nc(C(=O)O)cc(-c4ccc(N5CCOCC5)cc4)c23)C1 [compound 148]
79.64

Assign % Activation to the following record: CC(C)(C)c1nn(C2CCCC2)c2nc(C(=O)O)cc(-c3cnc(N4CCOCC4)nc3)c12 [compound 100]
115.7

Annotate the compound CC(C)c1nn(C2CCC(F)(F)CC2)c2nc(C(=O)O)cc(-c3ccc(N4CCOCC4)cc3)c12 [compound 159] with its measured % Activation.
150.16

Note down % Activation recorded for CC(C)c1nn(C2CCOC2)c2nc(C(=O)O)cc(-c3ccc(N4CCOCC4)cc3)c12 (stereo not shown) [compound 120]
70.235

Dear colleague, please send me the reported % Activation for COCCN(C)c1cccc(-n2nc(C(C)C)c3c(-c4ccc(N5CCOCC5)cc4)cc(C(=O)O)nc32)c1 [compound 172] when you can.
339.33

====

# study_system: ΔF508-CFTR (Homo sapiens, UniProt P13569, DEL508-508)
# Construct: host or cells: CFBE41o-, doxycycline-inducible
# assay_protocol: CFTR cell surface levels using HRP-tagged ΔF508-CFTR expressing CFBE cells, in the presence of a co-corrector
# Format: cell-based
# measurement_setup: HRP-tagged ΔF508-CFTR expressing CFBE cells, in the presence of 3 μM co-corrector
assay_readout: % Activation (%)
Numbers only; they are read as %.

Report % Activation under test system ΔF508-CFTR (Homo sapiens, UniProt P13569, DEL508-508) for CC(C)N(CCOc1cc(C(=O)O)nc2c1c(C1CCC1)nn2-c1ccccc1)C1COC1 .
292

Report value: % Activation, system: ΔF508-CFTR (Homo sapiens, UniProt P13569, DEL508-508), compound: O=C(O)c1cc(OCCN2CCC3(CC2)OCCO3)c2c(C3CCC3)nn(-c3ccccc3)c2n1
308.3

State % Activation on ΔF508-CFTR (Homo sapiens, UniProt P13569, DEL508-508). Entry: COC1CCCN(c2cc(C(=O)O)nc3c2c(C2CCC2)nn3-c2ccccc2)C1 (stereo not shown)
297.2

Answer briefly: % Activation recorded on ΔF508-CFTR (Homo sapiens, UniProt P13569, DEL508-508) for CC(C)(C)c1nn(C2CCCCC2)c2nc(C(=O)O)cc(-c3cnc(N4CCOCC4)nc3)c12
296

====

# study_system: ΔF508-CFTR (Homo sapiens, UniProt P13569, DEL508-508)
# Construct: host or cells: CFBE41o-, doxycycline-inducible
# assay_protocol: CFTR cell surface levels using HRP-tagged ΔF508-CFTR expressing CFBE cells, in the presence of a co-corrector
# Format: cell-based
# measurement_setup: HRP-tagged ΔF508-CFTR expressing CFBE cells, in the presence of 3 μM co-corrector
Rule: % Activation below 300% gives yes (1), anything at or above gives no (0).

Lab log: compare recorded % Activation with 300%; is it strictly lower for O=C(O)c1cc(N2CCC(N3CCOCC3)CC2)c2c(C3CCC3)nn(-c3ccc4c(c3)CC4)c2n1 [compound 911] ?
no (0)

Please indicate whether the reported % Activation of O=C1CC[C@H](Oc2cc(C(=O)O)nc3c2c(C2CCC2)nn3-c2ccccc2)CN1 [compound 619] is strictly below 300%.
yes (1)

Is the reported % Activation for O=C(O)c1cc(N2CCC(N3CC4CC3CO4)CC2)c2c(C3CCC3)nn(-c3ccc(F)cc3)c2n1 (stereo not drawn) [compound 852] strictly below 300%?
no (0)

In plain terms, does O=C(O)c1cc(N2CCC(COCc3ccccc3)CC2)c2c(C3CCC3)nn(-c3ccccc3)c2n1 [compound 427] come in under 300% for % Activation?
no (0)

Consider O=C(O)c1cc(N2CC(F)(F)C[C@@H]2CO)c2c(C3CCC3)nn(-c3ccccc3)c2n1 [compound 506] . Does its % Activation lie strictly below 300%?
yes (1)
